System: NCI-H1395
assay text: relative viability (nuclei count vs DMSO), 5 days (fraction); higher = more cells survive
protocol conditions: first compound 0.08 µM
Consider the following molecules; for each one, report its relative viability.
Kindly provide the number alone.

Reported relative viability of Oc1nc(-c2ccc(C(F)(F)F)cc2)nc2c1CSCC2 [XAV939] + CS(=O)(=O)N1CCN(Cc2cc3nc(-c4cccc5[nH]ncc45)nc(N4CCOCC4)c3s2)CC1 [Pictilisib] (partner 1 µM) : 0.685

Reported relative viability of Oc1nc(-c2ccc(C(F)(F)F)cc2)nc2c1CSCC2 [XAV939] + COc1cc2c(Oc3ccc(NC(=O)C4(C(=O)Nc5ccc(F)cc5)CC4)cc3F)ccnc2cc1OCCCN1CCOCC1 [Foretinib] (partner 0.25 µM) : 1.07

Reported relative viability of Oc1nc(-c2ccc(C(F)(F)F)cc2)nc2c1CSCC2 [XAV939] + O=C(c1cc(Cc2n[nH]c(=O)c3ccccc23)ccc1F)N1CCN(C(=O)C2CC2)CC1 [Olaparib] (partner 8 µM) : 0.47

Reported relative viability of Oc1nc(-c2ccc(C(F)(F)F)cc2)nc2c1CSCC2 [XAV939] + Cc1nc(NC(=O)N2CCC[C@H]2C(N)=O)sc1-c1ccnc(C(C)(C)C(F)(F)F)c1 [Alpelisib] (partner 2 µM) : 1.09
